- assayProcedure: qHTS for induction of synthetic lethality in tumor cells producing 2HG: qHTS for the HT-1080-IDH1KD cell line; further: potency means the concentration at half of the fitted maximal effect
- conditionNotes: HT-1080 IDH1 knockdown viability, ATP luminescence, 48 h; series mostly up to 46.1 µM
The campaign covered roughly 360,000 compounds. About 7,500 (2.1%) were called active. Not shown: some 8% with an inconclusive outcome. The sample holds actives, similar compounds and a random draw of the others, so the mix is not that of the screen.
valueKind: Potency

{"columns": ["molecule", "valueKind", "result"],
 "data": [
  ["COc1ccc(-c2[nH]ncc2CN(C)Cc2c(C)n[nH]c2C)c(OC)c1", "Potency", "inactive"],
  ["CC1(C(=O)Nc2cccc3cccnc23)CCN1C(=O)CCC1CCCC1 (stereo not given)", "Potency", "inactive"],
  ["Oc1ccc(Br)cc1/C=N/Nc1ccccn1", "Potency", "6.51 µM (active)"],
  ["COc1cc(NC(=O)c2cncc(-c3ccc(C#N)cc3)c2)cc(C(=O)Nc2cccc(C(F)(F)F)c2)c1", "Potency", "inactive"],
  ["CC1=C/C(=N\\OS(=O)(=O)c2ccccc2)C=CC1=O", "Potency", "20 µM (active)"],
  ["O=C(NN=Cc1ccc2c(c1)CCC2)c1ccccc1O", "Potency", "inactive"],
  ["CCCCCn1c(SCCC(C)C)nc2c1c(=O)[nH]c(=O)n2C", "Potency", "20.6 µM (active)"],
  ["CCC(C(=O)OCC(=O)Nc1ccc(C(=O)Nc2ccc(OC)cc2)cc1)c1ccccc1 (stereo not given)", "Potency", "25.9 µM (active)"],
  ["Cc1cccc(N(Cc2ccccc2)C(=O)c2ccccc2F)c1", "Potency", "inactive"],
  ["Cc1ccc(Cc2c(-c3ccco3)nc3ccc(Cl)cn23)cc1", "Potency", "16.4 µM (active)"],
  ["O=C1c2ccccc2NC(c2ccc(-c3cccc(Cl)c3)o2)N1O (stereo not given)", "Potency", "20 µM (active)"],
  ["CCC(C(=O)OCC(=O)Nc1ccccc1-c1ccccc1)c1ccccc1 (stereo not given)", "Potency", "inactive"],
  ["COc1cccc(-c2cnc(C(O)c3ccccc3OC)[nH]2)c1 (stereo not given)", "Potency", "inactive"],
  ["CCNC(=O)C1(C)CCCN1C(=O)c1ccc(N(C)C)cc1 (stereo not given)", "Potency", "inactive"],
  ["C=CCSc1nc2c(c(=O)[nH]c(=O)n2C)n1Cc1ccccc1", "Potency", "inactive"],
  ["CCOC(=O)[C@]12CCCC=C1N(CCC1=CCCCC1)C(=O)[C@H](CC(=O)NCCCOC)C2", "Potency", "inactive"],
  ["O=[N+]([O-])c1ccc(C=NN=Cc2ccc([N+](=O)[O-])cc2)cc1", "Potency", "inactive"],
  ["Cc1ccc(-c2nc3ccc(Cl)cn3c2Cc2ccccc2)cc1", "Potency", "inactive"],
  ["COc1ccc(NC(=O)c2cc(=O)[nH]c3ccccc23)cc1S(=O)(=O)N1CCOCC1", "Potency", "inactive"],
  ["CC(C)(O)C(=O)NN(C(=O)c1ccccc1)c1cccc(Br)c1", "Potency", "inactive"],
  ["COc1ccc(-c2n[nH]c(C)c2-c2ccc(OC)c(OC)c2)c(O)c1", "Potency", "18.4 µM (active)"],
  ["O[C@@H]1C[C@H](c2ccccc2)N(Cc2cccs2)C[C@H]1n1cc(C2CC2)nn1", "Potency", "inactive"],
  ["Cc1nc(-c2ccc(Cl)cc2)sc1C(=O)NN", "Potency", "10.3 µM (active)"],
  ["CCCCCCn1c(SCC(=O)c2ccccc2)nc2c1c(=O)[nH]c(=O)n2C", "Potency", "inactive"],
  ["COc1ccc(Cn2c(=O)oc3ccccc32)cc1", "Potency", "inactive"],
  ["Cc1ccc(Cc2c(-c3ccccc3)nc3ccc(Cl)cn23)cc1", "Potency", "inactive"],
  ["O=C(NC1CCCC1)C1c2ccccc2OCC(=O)N1CC(F)(F)F (stereo not given)", "Potency", "inactive"],
  ["CCN(CC)CCOCCOc1ccc(Cl)c2ccccc12", "Potency", "inactive"],
  ["COc1cc(C=NC2CCCCC2)ccc1O", "Potency", "inactive"],
  ["COc1cc(NC(=O)c2[nH]cnc2C(N)=O)cc(C(=O)Nc2cccc(C(F)(F)F)c2)c1", "Potency", "20.6 µM (active)"],
  ["CCCCCNC(=O)C1C(=O)Nc2ccccc2C(=O)N1C(C)(C)C (stereo not given)", "Potency", "inactive"],
  ["CN(C)S(=O)(=O)Oc1ccccc1C(=O)Nc1ccccc1Cl", "Potency", "inactive"],
  ["CCC(C(=O)OCC(=O)Nc1c(Cl)cc(Cl)cc1Cl)c1ccccc1 (stereo not given)", "Potency", "inactive"],
  ["OC(c1ccc(F)cc1)c1ncc(-c2cccc(C(F)(F)F)c2)[nH]1 (stereo not given)", "Potency", "inactive"],
  ["Cc1nc(N2CCOCC2)sc1C(=O)NN", "Potency", "inactive"],
  ["CCCS(=O)(=O)NC(=O)C1(C)CCN(C(=O)c2sccc2C)C1 (stereo not given)", "Potency", "inactive"],
  ["O=C(NCc1ccccc1)C1c2ccccc2OCC(=O)N1C1CC1 (stereo not given)", "Potency", "inactive"],
  ["Cc1c(C(=O)Nc2ccccn2)oc2ccc(Br)cc12", "Potency", "inactive"],
  ["O=C(Nc1ccccc1Cl)/C(Cl)=C(\\Cl)S(=O)c1ccccc1 (stereo not given)", "Potency", "6.51 µM (active)"],
  ["Clc1ccc(-c2cccc3nccn23)cc1", "Potency", "inactive"],
  ["O=C(COC(=O)CCc1c[nH]c(=O)[nH]1)Nc1ccccc1Cl", "Potency", "inactive"],
  ["OC[C@@H]1CN(Cc2ccc(-c3ccccc3)cc2)C[C@H](n2cnc3c(NC4CCCC4)ncnc32)O1", "Potency", "20.6 µM (active)"],
  ["COc1cccc(C(O)c2ncc(-c3ccc4ccccc4c3)[nH]2)c1 (stereo not given)", "Potency", "inactive"],
  ["O=C(NCc1ccco1)c1cccc(-c2ccc3nncn3c2)c1", "Potency", "inactive"],
  ["CN(C)CCOCCOc1ccc(Cl)c2ccccc12", "Potency", "20.6 µM (active)"]
]}
